biological target: Na+/K+ ATPase alpha-2/beta-1 (Rattus norvegicus, UniProt P06686+P07340); experiment: Inhibition of recombinant rat Na+/K+-ATPase alpha2/beta1 expressed in baculovirus infected insect Sf9 cell membranes using [gamma-32P]ATP as substrate preincubated for 20 mins followed by substrate addition measured after 30 mins by liquid scintillation counting
Result Type: pIC50
Note on pIC50: it is the negative log10 of concentration, concentration in mol/L.

Using the record for COCO[C@H]1C[C@H]2OC(C)(C)OC[C@]23[C@@H]2[C@@H](CC[C@]3(O)C1)[C@@]1(OCOC)CC[C@H](CO)[C@@]1(C)C[C@H]2OCOC , report its pIC50.
5.18
